Cited source: paper PMC4132801

- targetSystem: SmNodC (Sinorhizobium meliloti, UniProt P04341)
- Construct: full-length (1-426), C-terminal mCherry-His fusion from pEXmCherry, E. coli BL21(DE3) C43 membrane fraction, not purified
- Sequence (P04341 1-426): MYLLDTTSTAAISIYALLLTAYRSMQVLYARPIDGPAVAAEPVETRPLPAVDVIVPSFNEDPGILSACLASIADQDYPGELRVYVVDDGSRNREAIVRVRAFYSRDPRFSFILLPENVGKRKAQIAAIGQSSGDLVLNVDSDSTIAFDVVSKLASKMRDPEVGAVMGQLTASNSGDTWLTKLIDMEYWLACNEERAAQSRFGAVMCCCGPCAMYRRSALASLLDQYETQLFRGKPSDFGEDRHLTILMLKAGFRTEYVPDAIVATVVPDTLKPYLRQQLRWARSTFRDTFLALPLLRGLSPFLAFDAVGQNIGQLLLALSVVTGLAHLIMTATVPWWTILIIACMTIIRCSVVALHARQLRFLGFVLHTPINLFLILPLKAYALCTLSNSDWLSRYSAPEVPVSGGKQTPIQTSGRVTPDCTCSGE
- assayInfo: coupled fluorogenic assay: chitinase B releases 4MU from 4MU-chitooligosaccharide product
observationType: Ki (nM)

| sampleSmiles | dataValue |
| --- | --- |
| C[C@@H]([C@H](N)C(=O)N[C@H](C(=O)O)[C@H]1O[C@@H](n2ccc(=O)[nH]c2=O)[C@H](O)[C@@H]1O)[C@H](O)c1ccc(O)cn1 | 250 |
